Molecular target: Human PD-L1/PD-1 (Homo sapiens)
Construct: made in house; host or cells: HEK293T
Sequence (Q9NZQ7 with tags, fused parts or gaps): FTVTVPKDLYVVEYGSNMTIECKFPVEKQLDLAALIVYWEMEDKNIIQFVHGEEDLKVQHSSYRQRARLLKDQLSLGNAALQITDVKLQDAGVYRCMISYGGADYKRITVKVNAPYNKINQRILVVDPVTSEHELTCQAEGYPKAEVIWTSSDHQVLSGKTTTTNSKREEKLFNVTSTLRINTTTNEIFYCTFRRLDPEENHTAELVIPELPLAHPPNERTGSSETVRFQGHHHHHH
Test: HTRF PD-1-Ig/PD-L1-His binding assay (human PD-L1)
Conditions: cluster symbol; read-out: HTRF IC50 cluster
Excerpt: The ability of the macrocyclic peptides of the present disclosure to bind to PD-L1 was investigated using a PD-1/PD-L1 Homogenous Time-Resolved Fluorescence (HTRF) binding assay. Homogenous Time-Resolved Fluorescence (HTRF) Assays of Binding of Soluble PD-1 to Soluble PD-L1. […]
pIC50: −log10 of the molar value. Positions of bridges follow the written chain, without caps; N, C: chain ends. Non-standard residues stand in square brackets, D forms with d. Residues, ends and D or L forms follow the SMILES beside them. Ala(benzothiazol-2-yl) = N[C@@H](Cc1nc2ccccc2s1)C(=O)O; NMeF = CN[C@@H](Cc1ccccc1)C(=O)O; NMeNle = CCCC[C@H](NC)C(=O)O; NMeA = CN[C@@H](C)C(=O)O; Sar = CNCC(=O)O
The following compounds are shown together with reported pIC50 values.
readout_kind: pIC50

>  <compound>
CCCC[C@H]1C(=O)N(C)[C@@H](CCCC)C(=O)N[C@@H](CCCNC(=N)N)C(=O)N[C@H](C(=O)NCC(=O)O)CSCC(=O)N[C@@H](Cc2ccccc2)C(=O)N(C)[C@@H](C)C(=O)N[C@@H](CC(N)=O)C(=O)N2CCC[C@H]2C(=O)N[C@@H](Cc2cnc[nH]2)C(=O)N[C@@H](CC(C)C)C(=O)N(C)CC(=O)N[C@@H](Cc2c[nH]c3ccccc23)C(=O)N[C@@H](CO)C(=O)N[C@@H](Cc2c[nH]c3ccccc23)C(=O)N1C [Example 1076] ({CH2CO}-F[NMeA]NPHL[Sar]WSW[NMeNle][NMeNle]RCG-OH; thioether N-14)

>  <assay_system>
Human PD-L1/PD-1 (Homo sapiens)

>  <measured_value>
7.52 to 8.17

$$$$
>  <compound>
CCCC[C@H]1C(=O)N(C)CC(=O)N[C@@H](CC(=O)O)C(=O)N[C@@H](C(C)C)C(=O)N(C)[C@@H](Cc2ccccc2)C(=O)N[C@@H](Cc2ccc(O)cc2)C(=O)N(C)CC(=O)N[C@@H](Cc2c[nH]c3ccccc23)C(=O)N[C@@H](Cc2nc3ccccc3s2)C(=O)N[C@@H](CC(C)C)C(=O)N[C@H](C(=O)NCC(N)=O)CSCC(=O)N[C@@H](Cc2ccccc2)C(=O)N(C)[C@@H](Cc2ccccc2)C(=O)N1C [Example 3558] ({CH2CO}-F[NMeF][NMeNle][Sar]DV[NMeF]Y[Sar]W[Ala(benzothiazol-2-yl)]LCG-NH2; thioether N-13)

>  <assay_system>
Human PD-L1/PD-1 (Homo sapiens)

>  <measured_value>
< 7.52

$$$$

Origin of the recorded values: patent US9850283B2
